Assay: primary screen for activators of insulin secretion dependent on glucose, INS-1E cells, GLuc reporter luminescence (AID 743287);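 further: 0% = median of neutral control wells and 100% = median of IBMX positive control wells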
Conditions: INS-1E GLuc reporter insulin secretion, 2-3 h, at 16.6 µM, active compounds read high
Among all 370,000 compounds or so, about 2,300 (0.62%) were called active. This is one part of a sample in which actives are shown more often than they occur.
Each record here notes measured activation.
measure name: activation (%)

O=C(C[C@@H]1CC[C@@H]2[C@H](COC[C@H](O)CN2S(=O)(=O)c2ccccc2)O1)N[C@H]1CCN(Cc2ccccc2)C1 ... 4.06
N#Cc1cccc(-c2ccc([C@H]3[C@@H](CO)N[C@@H]3CNC(=O)C3CCC3)cc2)c1 ... 7.07
COC(=O)C1=C(C)N(Cc2ccc(F)cc2)C(=S)NC1c1cccc(Cl)c1 (stereo not given) ... -20.6
Cc1nc(N2[C@H](CO)[C@H](c3ccccc3)[C@H]2CNCC2CCC2)sc1C ... 2.74
O=C(NCCS(=O)(=O)NCc1ccc(Cl)cc1)c1ccccc1 ... 18.7

* * *

Test: primary screen for activators of insulin secretion dependent on glucose, INS-1E cells, GLuc reporter luminescence (AID 743287);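 further: 0% = median of neutral control wells and 100% = median of IBMX positive control wells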
Details: INS-1E GLuc reporter insulin secretion, 2-3 h, at 16.6 µM, active compounds read high
In all, about 370,000 compounds went through this assay and about 2,300 (0.62%) were called active. The sample as a whole holds a higher share of actives than the screen did.
measure name: activation (%)

CCC(=O)N1CCC2(CC1)CN(Cc1cccc(OC)c1)[C@@H](CO)c1[nH]c3cc(OC)ccc3c12 ... 5.34
CCCC#Cc1ccc2c(c1)O[C@H](CN(C)C(=O)C1CCCCC1)[C@H](C)CN([C@H](C)CO)S2(=O)=O ... -12.4
COc1ccc(NC(=O)N(C)C[C@@H]2Oc3ccc(NC(=O)Nc4ccccc4)cc3CC(=O)N([C@H](C)CO)C[C@@H]2C)cc1 ... -8.36
COc1ccccc1-c1noc(CSc2nc(C)cc(=O)[nH]2)n1 ... 5.85
COc1ccc(CN(C)C(=O)Cc2ccsc2)c(OC)c1OC ... -7.45
O=C(C[C@H]1C=C[C@H](NC(=O)c2cccc(F)c2)[C@@H](CO)O1)NCc1ccc(Oc2ccccc2)cc1 ... 8.87
C[C@@H]1CN([C@H](C)CO)C(=O)c2cccc(NS(=O)(=O)c3cn(C)cn3)c2O[C@H]1CN(C)S(=O)(=O)c1ccc(Cl)cc1 ... 12
Cc1ccc2[nH]c(=O)c(CN(C)S(=O)(=O)c3cccc4nonc34)cc2c1 ... 6.21

* * *

Each record here notes measured activation.
Assay: primary screen for activators of insulin secretion dependent on glucose, INS-1E cells, GLuc reporter luminescence (AID 743287);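 further: 0% = median of neutral control wells and 100% = median of IBMX positive control wells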
Settings: INS-1E GLuc reporter insulin secretion, 2-3 h, at 16.6 µM, active compounds read high
About 2,300 (0.62%) of roughly 370,000 compounds were called active. Shown is part of a subset that was picked to be rich in actives.
measure name: activation (%)

O=C(O)CCCCCCCCCC[n+]1ccccc1 ... 91.6
COc1ccc(/C=C2/C(=O)OCc3cc(OC)c(OC)cc32)c(OC)c1 ... 90.1
CC(C)NC(=O)N(C)C[C@@H]1OCCCC[C@H](C)Oc2ccc(NC(=O)Nc3ccccc3)cc2C(=O)N([C@H](C)CO)C[C@@H]1C ... -11.5
O=C(NCC1CCCCC1)c1cc(S(=O)(=O)N2CCCCC2)ccc1N1CCOCC1 ... -3.7
COc1ccccc1S(=O)(=O)N[C@H]1CC[C@@H](CC(=O)NCc2cc(F)cc(F)c2)O[C@H]1CO ... 6.83
